Data credit: patent US20130251703A1

Assignment: determine reported SK-Br-3 proliferation IC50 for the given binders.
target: human HER3 endogenously expressed on human cancer cells (SK-Br-3, BT-474, MCF7) (human, UniProt P21860 20-1342); assay: cell-based or functional assay
Answers are plain numbers, in nM.

Some binders with known SK-Br-3 proliferation IC50 results, for comparison:
MOR13666 (antibody, human IgG1, lambda, V domains shown, Tested as IgG) VH: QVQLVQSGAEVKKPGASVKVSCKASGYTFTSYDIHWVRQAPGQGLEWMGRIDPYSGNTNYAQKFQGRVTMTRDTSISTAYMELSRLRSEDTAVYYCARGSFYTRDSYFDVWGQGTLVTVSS VL: DIALTQPASVSGSPGQSITISCTGTSSDVGTYNQVSWYQQHPGKAPKLMIYGVSKRPSGVSNRFSGSKSGNTASLTISGLQAEDEADYYCSTTTYSFHMVFGGGTKLTVLG
0.87
MOR14537 (antibody, human IgG1, lambda, V domains shown, Tested as IgG) VH: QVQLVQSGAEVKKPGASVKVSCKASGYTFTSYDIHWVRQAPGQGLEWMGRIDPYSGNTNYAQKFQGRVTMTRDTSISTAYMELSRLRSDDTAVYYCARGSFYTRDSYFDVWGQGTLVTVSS VL: QSALTQPASVSGSPGQSITISCTGTSSDVGTYNQVSWYQQHPGKAPKLMIYGVSKRPSGVSNRFSGSKSGNTASLTISGLQAEDEADYYCSSATQKPDVTVFGGGTKLTVLG
0.047

// below: SK-Br-3 proliferation IC50 requested for another binder
### Prompt Name the recorded SK-Br-3 proliferation IC50 of the item MOR12516 (antibody, human IgG1, lambda, V domains shown, Tested as IgG) VH: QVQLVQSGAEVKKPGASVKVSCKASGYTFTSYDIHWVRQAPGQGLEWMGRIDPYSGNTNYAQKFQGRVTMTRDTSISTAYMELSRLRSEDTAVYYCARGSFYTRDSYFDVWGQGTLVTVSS VL: DIALTQPASVSGSPGQSITISCTGTSSDVGTYNQVSWYQQHPGKAPKLMIYGVSKRPSGVSNRFSGSKSGNTASLTISGLQAEDEADYYCQSRDTYRPVKVFGGGTKLTVLG in your answer.
### Response 2.08
